target: hGLP-1R (Homo sapiens); assay: Functional cAMP activation in the presence of 0.1% casein (no HSA); format: cell-based; conditions: in the presence of 0.1% casein (no HSA); geometric mean; read-out: Relative cAMP EC50, hGLP-1R;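 further: intracellular cAMP rise after 30 min at 37 °C read by HTRF, normalized between buffer only (0%) and maximal control ligand (100%), four-parameter variable-slope fit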
Sequence (P43220 24-463): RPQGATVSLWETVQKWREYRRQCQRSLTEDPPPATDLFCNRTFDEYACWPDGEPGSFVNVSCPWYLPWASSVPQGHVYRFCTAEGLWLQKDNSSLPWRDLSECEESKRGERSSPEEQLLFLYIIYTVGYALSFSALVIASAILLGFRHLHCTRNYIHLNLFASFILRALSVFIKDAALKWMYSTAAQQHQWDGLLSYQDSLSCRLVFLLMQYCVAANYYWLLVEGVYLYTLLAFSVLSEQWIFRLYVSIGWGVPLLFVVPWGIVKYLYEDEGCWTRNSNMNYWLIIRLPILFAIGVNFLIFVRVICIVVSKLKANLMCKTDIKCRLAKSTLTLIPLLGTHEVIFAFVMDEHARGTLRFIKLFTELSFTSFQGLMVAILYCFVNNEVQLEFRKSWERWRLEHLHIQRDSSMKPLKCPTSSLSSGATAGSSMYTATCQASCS
Starred links: 1 amine or outer side, 2 acyl side, 3 side chain; linkers in the order of their positions; H or OH if unused. Non-standard residues stand in square brackets, D forms with d. Groups on a side chain read outwards from the residue. *: point of attachment. C20 diacid = O=C(O)CCCCCCCCCCCCCCCCCCC(=O)*; C18 diacid = O=C(O)CCCCCCCCCCCCCCCCC(=O)*; γGlu = O=C(O)[C@H](CCC(=O)[*:2])N[*:1]; αMe4Pal = C[C@](N)(Cc1ccncc1)C(=O)O; αMeY = C[C@](N)(Cc1ccc(O)cc1)C(=O)O; 4Pal = N[C@@H](Cc1ccncc1)C(=O)O; αMeL = CC(C)C[C@](C)(N)C(=O)O; Orn = NCCC[C@H](N)C(=O)O; AEEA = NCCOCCOCC(=O)O; Aib = CC(C)(N)C(=O)O
Answer each item with its documented EC50.
State the result as a value with its unit after it.

Fill in: EC50 of H-Y[Aib]QGTFTSDFSK[αMeL]LDKK([AEEA-γGlu-C20 diacid])AQ[Aib]AFIEYLLE[Aib]GPSSGAPPPGGS-NH2 [Example 43] is ___
1.55 nM

Record: H-Y[Aib]QGTFTSD[4Pal]SQ[αMeL]LD[Orn]K([Glu-γGlu-C18 diacid])AQ[αMe4Pal]AFIQ[αMeY]LIEGGPSSGAPPPSGSEEE-NH2 [Example 1077]
1.48 nM

Record: H-Y[Aib]QGTFTSD[4Pal]S[Orn][αMeL]LDKK([AEEA-γGlu-C18 diacid])AQ[Aib]AFIEYLLE[dA]GPSSGAPPPSG[4Pal]-NH2 [Example 274]
4.9 nM

----------
target: human GcgR (Homo sapiens); experiment: Functional cAMP activity in the presence of 1% HSA; type: cell-based; settings: read-out: cAMP Rel EC50, hGcgR
Sequence (P47871 26-477): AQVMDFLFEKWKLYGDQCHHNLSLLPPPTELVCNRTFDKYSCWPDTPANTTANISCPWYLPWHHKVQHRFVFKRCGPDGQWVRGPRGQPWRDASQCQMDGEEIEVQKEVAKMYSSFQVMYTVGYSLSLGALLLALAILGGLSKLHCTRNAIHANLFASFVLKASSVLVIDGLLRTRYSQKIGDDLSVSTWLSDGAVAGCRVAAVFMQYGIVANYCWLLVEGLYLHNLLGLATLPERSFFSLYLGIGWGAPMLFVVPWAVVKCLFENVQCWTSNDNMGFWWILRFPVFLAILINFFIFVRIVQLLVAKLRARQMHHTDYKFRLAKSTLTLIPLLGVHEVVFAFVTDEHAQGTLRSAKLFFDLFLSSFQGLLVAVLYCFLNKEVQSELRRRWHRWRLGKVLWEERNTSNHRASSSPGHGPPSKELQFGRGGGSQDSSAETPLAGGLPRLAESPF
Starred links: 1 amine or outer side, 2 acyl side, 3 side chain; linkers in the order of their positions; H or OH if unused. Non-standard residues stand in square brackets, D forms with d. Groups on a side chain read outwards from the residue. *: point of attachment. C20 diacid = O=C(O)CCCCCCCCCCCCCCCCCCC(=O)*; C18 diacid = O=C(O)CCCCCCCCCCCCCCCCC(=O)*; αMePhe(2-F) = C[C@](N)(Cc1ccccc1F)C(=O)O; γGlu = O=C(O)[C@H](CCC(=O)[*:2])N[*:1]; αMe4Pal = C[C@](N)(Cc1ccncc1)C(=O)O; αMeY = C[C@](N)(Cc1ccc(O)cc1)C(=O)O; 4Pal = N[C@@H](Cc1ccncc1)C(=O)O; αMeL = CC(C)C[C@](C)(N)C(=O)O; αMeS = C[C@](N)(CO)C(=O)O; Orn = NCCC[C@H](N)C(=O)O; AEEA = NCCOCCOCC(=O)O; Aib = CC(C)(N)C(=O)O
Answer each item with its documented pEC50.
When answering, recall that pEC50 equals minus log10 of the concentration in mol/L, and write that number alone.

Fill in: pEC50 of H-Y[Aib]QGTFTSD[4Pal]SQ[αMeL]LDKK([γGlu-γGlu-C18 diacid])AQ[αMe4Pal]AFIE[αMe4Pal]LIE[Aib]GPSSGAPPPSGTGE-NH2 [Example 1119] is ___
6.63

Record: H-Y[Aib]QGTFTSDYSI[αMeL]LDKQAAK([AEEA-AEEA-γGlu-C20 diacid])QFVEWLIA[Aib]GPSSGEPPPSEG-NH2 [Example 326]
5.82

Record: H-Y[Aib]QGTFTSDFS[Orn][αMeL]LDKK([AEEA-γGlu-C18 diacid])AQ[Aib]AFIEYLLAGGPSSGAPPPSGT-NH2 [Example 87]
5.95

Record: H-Y[Aib]QGTFTSD[4Pal]S[Orn][αMeL]LDKK([γGlu-γGlu-C18 diacid])AQ[αMe4Pal]AFIE[αMeY]LIEGGPSSGAPPPSGSEE-NH2 [Example 967]
6.29

Record: H-Y[Aib]QGTFTSDFS[Orn][αMeL]LDKK([AEEA-AEEA-γGlu-C18 diacid])AQ[Aib]AFIEYLLE[dA]GPSSG[4Pal]PPPSG[4Pal]-NH2 [Example 258]
5.89

Record: H-Y[Aib]QGT[αMePhe(2-F)]TSD[4Pal][αMeS]I[αMeL]LD[Orn]K([AEEA-AEEA-γGlu-C18 diacid])AQ[αMe4Pal]EFI[dE][αMeY]LIEGGPSSGEPPPSGS-NH2 [Example 1208]
6.35

Record: H-Y[Aib]QGTFTSD[4Pal]SQ[αMeL]LDKK([AEEA-γGlu-C18 diacid])AQ[αMe4Pal]AFIEYLIE[Aib]GPSSGAPPPSGSE-NH2 [Example 886]
6.27
